Values were extracted from patent US20160130351A1.

# target_or_system: T1, soluble cynomolgus monkey IL-6R (cynomolgus monkey, UniProt A0A2K5WN54 60-396)
# T1 construct: extracellular domain; also called scyIL-6R; soluble cynomolgus monkey IL-6 Receptor; not shown: C-terminal His- or Avi-Tag
# T1 sequence: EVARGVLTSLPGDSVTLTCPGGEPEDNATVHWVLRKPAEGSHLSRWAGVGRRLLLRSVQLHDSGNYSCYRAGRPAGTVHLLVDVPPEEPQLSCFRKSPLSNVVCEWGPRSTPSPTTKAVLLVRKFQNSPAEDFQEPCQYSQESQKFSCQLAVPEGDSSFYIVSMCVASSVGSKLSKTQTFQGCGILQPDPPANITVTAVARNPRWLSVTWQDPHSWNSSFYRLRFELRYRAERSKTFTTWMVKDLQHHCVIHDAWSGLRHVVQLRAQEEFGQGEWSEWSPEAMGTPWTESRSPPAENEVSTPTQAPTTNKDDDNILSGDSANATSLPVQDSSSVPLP
# procedure_summary: SPR (Biacore 2000), mAb captured on anti-human IgG Fc, analyte in solution, 25 C, 1:1 Langmuir
property: kon (M⁻¹ s⁻¹)
Answers are plain numbers, in M⁻¹ s⁻¹.

Requested read-out: kon. Entry: NI-1201-C antibody (antibody, V domains shown) VH: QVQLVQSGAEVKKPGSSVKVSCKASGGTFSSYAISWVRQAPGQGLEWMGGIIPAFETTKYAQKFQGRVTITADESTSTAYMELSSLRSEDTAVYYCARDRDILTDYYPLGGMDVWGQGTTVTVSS VL: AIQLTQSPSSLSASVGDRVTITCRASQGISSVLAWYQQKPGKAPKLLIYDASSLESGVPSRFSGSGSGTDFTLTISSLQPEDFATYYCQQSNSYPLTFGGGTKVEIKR
111000
